Target: human glutathione transferase A1-1 (hGSTA1-1) (Homo sapiens, UniProt P08263)
Sequence (P08263 2-222): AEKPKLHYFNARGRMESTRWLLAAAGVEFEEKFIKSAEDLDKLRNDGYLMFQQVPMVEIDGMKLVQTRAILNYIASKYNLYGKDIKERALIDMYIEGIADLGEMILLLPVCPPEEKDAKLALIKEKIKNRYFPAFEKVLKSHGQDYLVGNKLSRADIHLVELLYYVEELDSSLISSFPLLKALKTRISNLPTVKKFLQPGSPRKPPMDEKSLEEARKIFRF
Assay: CDNB/GSH conjugation assay with purified recombinant hGSTA1-1; IC50 and steady-state inhibition kinetics (Ki […] vs GSH, […] vs CDNB)
OBSERVABLE: pIC50
Here pIC50 is given on a logarithmic scale as minus log10 of the concentration in mol/L.

Fill in: pIC50 of `O=c1c(O)c(-c2ccc(O)c(O)c2)oc2cc(O)ccc12` is ___
5.92

Origin of the recorded values: paper PMC8004991
